Test Name: Therapeutic index, ratio of CC50 for cytotoxicity against human H9 cells to EC50 for antiviral activity against HIV13B
Type: toxicity, cell-based
Condition Description: read-out: TI
// reported selectivity ratio per item

| Record Smiles | selectivity ratio |
| --- | --- |
| COc1ccc(O)cc1NC(=O)c1c(N)cccc1Sc1ccc([N+](=O)[O-])cc1 | > 213 |
| Nc1ccn([C@@H]2CS[C@H](CO)O2)c(=O)n1 | > 976 |
| Cc1cc(C)cc(NC(=O)c2c(N)cccc2S(=O)(=O)c2ccc([N+](=O)[O-])cc2)c1 | > 3.79 |
